I'd be grateful if you could share measured growth inhibition for these entries.
# assayComment: NCI Yeast Anticancer Drug Screen. Data for the mec2-1 strain (AID 157)
# reportedConditions: S. cerevisiae mec2-1 strain, at 5.0 µM (retest, dose inferred, filed as 0.5), hits give high values
Compounds without any hit were thinned out: in the full panel of roughly 79,000, 15% have a hit.
Express it in %; write the number only.

Q: GET /values?readout=growth inhibition&item= `O=C(NCCNCCNC(=O)c1cc(-c2ccccc2)nc2ccccc12)c1cc(-c2ccccc2)nc2ccccc12`
Result: -11

Q: GET /values?readout=growth inhibition&item= `CC1=C(C)C(=O)C2=C(OCCO2)C1=O`
Result: -8

Q: GET /values?readout=growth inhibition&item= N#CC1OB(O)c2ccccc21 (stereo not given)
Result: -51

Q: GET /values?readout=growth inhibition&item= `CCN(CC)CCNc1ccc2nc(C)n3c4ccc(O)cc4c(=O)c1c23`
Result: 15

Q: GET /values?readout=growth inhibition&item= `CCC[CH2][Sn]([CH2]CCC)([CH2]CCC)/[C](=C/[Si](C)(C)c1ccccc1)c1ccc2c(c1)OCO2`
Result: 27

Q: GET /values?readout=growth inhibition&item= `S=C1N(c2ccc(Cl)cc2)C2=C(N=Nc3ccccc3)C(=Nc3ccccc3S2)N1c1ccccn1`
Result: 3

Q: GET /values?readout=growth inhibition&item= `COc1ccc(-c2cc(-c3cc(C)cc(Cl)c3O)nc3[nH]c(=S)[nH]c(=S)c23)cc1`
Result: 2

Q: GET /values?readout=growth inhibition&item= COc1ccccc1/C=C\C(=O)C1COCN1 (stereo not given)
Result: -49

Q: GET /values?readout=growth inhibition&item= `CC(C)OP(=O)(OC(C)C)C(=NCCO)NNc1ccc([N+](=O)[O-])cc1`
Result: -2

Q: GET /values?readout=growth inhibition&item= `CC(C)=CCc1c2c(c(O)c3c(=O)c(-c4ccc(O)c(O)c4)coc13)C=CC(C)(C)O2`
Result: 30

Q: GET /values?readout=growth inhibition&item= `O=C(/C(=C/c1ccc(O)cc1)c1ccccc1)c1ccccc1`
Result: -8

Q: GET /values?readout=growth inhibition&item= `CN(C)CCNCCCNc1c2ccccc2nc2cccc([N+](=O)[O-])c12`
Result: 17

Q: GET /values?readout=growth inhibition&item= `COc1ccc(C(=O)/C=C\c2ccc(Cl)c(Cl)c2)cc1`
Result: 47

Q: GET /values?readout=growth inhibition&item= O=S(=O)(c1cccc(C(F)(F)F)c1)N1c2ccccc2-n2cccc2C1c1cccnc1 (stereo not given)
Result: 31

Q: GET /values?readout=growth inhibition&item= `CNC(=S)N/N=C(/C)CCC/C(C)=N/NC(=S)NC`
Result: 66

Q: GET /values?readout=growth inhibition&item= `ClCCCOc1c(Cl)cc(Cl)cc1Cl`
Result: -27

Q: GET /values?readout=growth inhibition&item= `CCCNC(=O)OCc1c(COC(=O)NCCC)c(-c2ccc(Cl)c(Cl)c2)n2c1CCC2`
Result: 11

Q: GET /values?readout=growth inhibition&item= `Cc1ccc(Nc2n[nH]c(=S)s2)c(C)c1`
Result: -11

Q: GET /values?readout=growth inhibition&item= `O=C1C=C(NCCc2cc(Br)c(O)c(Br)c2)C(=O)c2ncccc21`
Result: -5

Q: GET /values?readout=growth inhibition&item= `CCO/C=C1\SC(=S)N(c2ccc(OCC)cc2)C1=O`
Result: 47

Q: GET /values?readout=growth inhibition&item= `O=C1c2ccccc2-c2ccc(N=Cc3ccccc3)cc21`
Result: 4

Q: GET /values?readout=growth inhibition&item= `CC(=O)O/N=C1C=C/C(=C(/C#N)c2ccccc2)C=C/1C`
Result: 16

Q: GET /values?readout=growth inhibition&item= `Cc1c2c(nc3ccccc13)C(=O)c1cccnc1C2=O`
Result: -4

Q: GET /values?readout=growth inhibition&item= `NC(=S)N1N=C2c3ccccc3CC[C@H]2[C@@H]1c1ccc(Cl)cc1`
Result: 7

Q: GET /values?readout=growth inhibition&item= `COC(=O)C(=O)c1c(-c2ccc(Cl)c(Cl)c2)[nH]c2[nH]n(-c3ccccc3)c(=O)c2c1=O`
Result: -7

Q: GET /values?readout=growth inhibition&item= `COC(=O)/C(C#N)=C\NC(=S)C(N)=S`
Result: -1

Q: GET /values?readout=growth inhibition&item= CCCCCCCCCCCCCCCCCCNc1nc(=O)n(C2CC(OP(=O)(O)OCC3OC(n4cc(F)c(=O)[nH]c4=O)CC3O)C(CO)O2)cc1F (stereo not given)
Result: 24

Q: GET /values?readout=growth inhibition&item= `CCOC(=O)Nc1ccc(C)c(NC(=O)OCC)c1`
Result: -2

Q: GET /values?readout=growth inhibition&item= COc1ccc(C(OCC2OC(n3cnc4c(=O)n(Cc5ccccc5[N+](=O)[O-])nnc43)C(O)C2O)(c2ccccc2)c2ccc(OC)cc2)cc1 (stereo not given)
Result: 14

Q: GET /values?readout=growth inhibition&item= `Cc1ccnc2c(O)cccc12`
Result: -1
